Where a name gives a salt, the structure may show the parent alone.
quantity: melting point

> print(dat)
                                   compound       quantity       observed.result
1  Cl.Cl.N=C(N)Nc1ccc(-c2ccc(-c3ccc(NC(=N)N)cc3Cl)o2)c(Cl)c1  melting point  300 to 304 °C (dec.)
2  Cc1cc(NC(=N)N)ccc1-c1ccc(-c2ccc(NC(=N)N)cc2C)o1.Cl.Cl  melting point  265 to 271 °C (dec.)
3  Nc1ccc(-c2ccc(-c3nc4ccc(C5=NCCN5)cc4[nH]3)o2)cc1 (as salt: salt)  melting point              > 300 °C
4  O=[N+]([O-])c1ccc(-c2ccc(-c3nc4ccc(C5=NCCN5)cc4[nH]3)o2)cc1 (as salt: salt)  melting point              > 300 °C
